Catalogue of compounds with associated IC50
system: TEAD-dependent transcription (12XGTIIC TEAD response element luciferase reporter) in MSTO-211H cells; assay: TEAD-dependent transcription cell-based luciferase reporter assay in MSTO-211H+12XGTIIC cells; settings: Homo sapiens; MSTO-211H+12XGTIIC reporter cells, 24 hours compound incubation, luminescence normalized to cell viability signal, geometric mean; read-out: MSTO-211H GMean IC50 (uM) Cell Assay Reporter Cell Variant: TEAD
endpoint.name: IC50

>>> observed_result("O=C(Cc1cn[nH]c1)N1CCc2c(cccc2Nc2ccc(C(F)(F)F)nc2)C1")
"0.001 to 10 µM"
>>> observed_result("C=CC(=O)Nc1cc(C(=O)N2CCc3c(cccc3Nc3ccc(C(F)(F)F)cc3)C2)ccn1")
"0.001 to 10 µM"
>>> observed_result("O=C(NCc1ccccn1)N1CCc2c(cccc2Nc2ccc(C(F)(F)F)cc2)C1")
"0.001 to 10 µM"
>>> observed_result("O=C(NCCC(=O)N1CCc2c(cccc2Nc2ccc(C(F)(F)F)cc2F)C1)NC1CC1")
"0.001 to 10 µM"

---

Catalogue of molecules with associated IC50
test system: TEAD-dependent transcription (12XGTIIC TEAD response element luciferase reporter) in MSTO-211H cells; test: TEAD-dependent transcription cell-based luciferase reporter assay in MSTO-211H+12XGTIIC cells; conditions: Homo sapiens; MSTO-211H+12XGTIIC reporter cells, 24 hours compound incubation, luminescence normalized to cell viability signal, geometric mean; read-out: MSTO-211H GMean IC50 (uM) Cell Assay Reporter Cell Variant: TEAD
endpoint.name: IC50

>>> observed_result("C=CC(=O)Nc1ccnc(C(=O)N2CCc3c(cccc3Nc3ccc(C(F)(F)F)cc3)C2)c1 [Compound O-0036]")
"0.001 to 10 µM"
>>> observed_result("O=C(CCS(=O)(=O)C(F)(F)F)N1CCc2c(cccc2Nc2ccc(C(F)(F)F)cc2)C1 [Compound O-0010]")
"0.001 to 10 µM"
>>> observed_result("Nc1cccc(C(=O)N2CCc3c(cccc3Nc3ccc(C(F)(F)F)cc3)C2)c1 [Compound O-0028]")
"10 to 100 µM"
>>> observed_result("O=C(NC1CC1)N1CCC(C(=O)N2CCc3c(cccc3Nc3ccc(C(F)(F)F)nc3)C2)C1 (stereo not drawn) [Compound O-0096]")
"0.001 to 10 µM"
>>> observed_result("CN(c1ccc(C(F)(F)F)cc1)c1cccc2c1CCN(C(=O)c1cccc(N)n1)C2 [Compound O-0014]")
"0.001 to 10 µM"
>>> observed_result("O=C(NCCC(=O)N1CCc2c(cccc2Nc2ccc(C(F)(F)F)cn2)C1)Nc1ccccn1 [Compound O-0186]")
"0.001 to 10 µM"
>>> observed_result("O=C(NC1CC1)N1CCC(C(=O)N2CCc3c(cccc3Nc3ccc(C(F)(F)F)c(F)c3)C2)C1 (stereo not drawn) [Compound O-0098]")
"0.001 to 10 µM"
>>> observed_result("O=C(NCCC(=O)N1CCc2c(cccc2Nc2ccc(C(F)(F)F)c(F)c2)C1)Nc1ccccn1 [Compound O-0185]")
"0.001 to 10 µM"
>>> observed_result("O=C(NCCC(=O)N1CCc2c(cccc2Nc2ccc(C(F)(F)F)nc2)C1)NC1CC1 [Compound O-0195]")
"0.001 to 10 µM"
>>> observed_result("C=CC(=O)Nc1cccc(C(=O)N2CCc3c(cccc3N(C)c3ccc(C(F)(F)F)cc3)C2)n1 [Compound O-0018]")
"0.001 to 10 µM"
>>> observed_result("O=C(NCCC(=O)N1CCc2c(cccc2Nc2ccc(C(F)(F)F)nc2)C1)Nc1ccccn1 [Compound O-0184]")
"0.001 to 10 µM"
>>> observed_result("Cc1nc(CC(=O)N2CCc3c(cccc3Nc3ccc(C(F)(F)F)cc3)C2)co1 [Compound O-0005]")
"0.001 to 10 µM"
>>> observed_result("C=CC(=O)Nc1cncc(C(=O)N2CCc3c(cccc3Nc3ccc(C(F)(F)F)cc3)C2)c1 [Compound O-0037]")
"0.001 to 10 µM"
>>> observed_result("O=C(NC1CC1)N1CCC(C(=O)N2CCc3c(cccc3Nc3ccc(C(F)(F)F)cc3F)C2)C1 (stereo not drawn) [Compound O-0094]")
"0.001 to 10 µM"
>>> observed_result("Nc1cccc(CNC(=O)N2CCc3c(cccc3Nc3ccc(C(F)(F)F)cc3)C2)n1 [Compound O-0191]")
"0.001 to 10 µM"

These measurements were taken from patent US20250368614A1.
